List of GI50 values.
# Test system: U-251
# protocol.notes: NCI tumour cell line growth inhibition, 48 h
Activity calls are given as the source filed them. Cut-off read from the data, not from the text of the source: active = GI50 up to about 1.1 µM and inactive = higher.

Sample records with GI50:
>  <compound>
COC(=O)c1ccc(C)cc1CC1Cc2ccc(C)cc2C1=O (stereo unspecified)

>  <readout.label>
GI50

>  <result>
4.07 µM (inactive)

$$$$
>  <compound>
O=C(OCc1ccccc1)C(Cc1ccccc1)N(Cc1ccccc1)Cc1ccccc1 (stereo unspecified)

>  <readout.label>
GI50

>  <result>
27.7 µM (inactive)

$$$$
>  <compound>
COc1ccc(NC(=S)NC(=O)c2ccc3c(c2)Sc2ccccc2O3)c([N+](=O)[O-])c1

>  <readout.label>
GI50

>  <result>
20.2 µM (inactive)

$$$$
>  <compound>
Cc1ccc(S(=O)(=O)c2c(N)n(CCN(C)C)c3nc4ccccc4nc23)cc1

>  <readout.label>
GI50

>  <result>
> 100 µM (inactive)

$$$$
>  <compound>
Nc1ccc2nc(-c3cccc(C(F)(F)F)c3)cc(O)c2c1

>  <readout.label>
GI50

>  <result>
49.3 µM (inactive)

$$$$

Return reported GI50 for target or system U-251, item O=[N+]([O-])c1cc(Cl)cnc1Br .
2.16 µM (inactive)

Return reported GI50 for target or system U-251, item Cc1cc(C(C)(C)C)c(OCCCN2CCOCC2)c(C(C)(C)C)c1 .
18 µM (inactive)

Return reported GI50 for target or system U-251, item CC(C)(CN1CCCCC1)C(=O)CC(SCCS(=O)(=O)O)c1ccc(Br)cc1 (stereo unspecified) .
1.56 µM (inactive)

Return reported GI50 for target or system U-251, item COC(=O)c1c(C)oc2ccc(OC(C)=O)cc12 .
> 100 µM (inactive)

Return reported GI50 for target or system U-251, item N#Cc1c(-c2ccco2)cc(-c2ccc(N)cc2)[nH]c1=O .
> 100 µM (inactive)

Return reported GI50 for target or system U-251, item O=C1C=Cc2c1csc2Br .
51.2 µM (inactive)

Return reported GI50 for target or system U-251, item O=c1cc(-c2cc(O)c(O)c(-c3c(O)cc4oc(-c5ccc(O)c(O)c5)cc(=O)c4c3O)c2)oc2cc(O)cc(O)c12 .
19.2 µM (inactive)

Return reported GI50 for target or system U-251, item OC(c1ccccc1)(c1cccnc1)C(O)(c1ccccc1)c1cccnc1 (stereo unspecified) .
> 100 µM (inactive)

Return reported GI50 for target or system U-251, item COC(=O)[C@@H]1C=C[C@H](NC(C)=O)C1 .
> 100 µM (inactive)

Return reported GI50 for target or system U-251, item CC(c1ccccc1)n1cncc1C(=O)NN1CCN(C)CC1 (stereo unspecified) .
> 10 µM (inactive)

Return reported GI50 for target or system U-251, item CC1CC(C)C(=O)C(C(=O)CC2CC(=O)NC2=O)C1 (stereo unspecified) .
> 100 µM (inactive)
